Provide the reported log10 of IC50 of each item.
molecular target: CD95/PLCγ1 interaction (SH3-PLCg1/CID-CD95) (Homo sapiens, UniProt P19174); construct: SH3—PLCγ1-F1 or DD-FADD-F1 (inset) was co-transfected into HEK293T cells; experiment: Renilla luciferase protein-fragment complementation assay (PCA), SH3-PLCγ1-F1 / CID-CD95-F2; details: HEK293T cells, exposed 4 h, luminescence
Sequence (P19174 791-851): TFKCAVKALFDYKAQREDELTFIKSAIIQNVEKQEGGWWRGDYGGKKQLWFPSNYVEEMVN
Please be aware that the numbers have been log10-transformed from IC50 in µM.

Return the recorded log10 of IC50 value; entry: N=C(N)NCCCCC(=O)N(CCNC(=O)C(N)CS)C(CCCCN)C(=O)NCCN(C(=O)CCc1c[nH]cn1)C(CCCNC(=N)N)C(=O)NCCNC(=O)CCCCCN (centres unmarked) [Compound 10]
2.60

Return the recorded log10 of IC50 value; entry: N=C(N)NCCCCC(=O)N(CCNC(=O)C(Cc1cnc[nH]1)N(CCNC(=O)C(CCCNC(=N)N)N(CCN)C(=O)CCS)C(=O)CCc1c[nH]c2ccccc12)C(CCCCN)C(N)=O (centres unmarked) [Compound 3]
2.27

Return the recorded log10 of IC50 value; entry: CC(O)C(N)C(=O)NCCN(C(=O)CCS)C(Cc1c[nH]c2ccccc12)C(=O)NCCN(C(=O)CCCCCN)C(Cc1cnc[nH]1)C(=O)NCCN(C(=O)CCCCNC(=N)N)C(CCCCN)C(N)=O (centres unmarked) [Compound 7]
1.90

Return the recorded log10 of IC50 value; entry: N=C(N)NCCCCC(=O)N(CCNC(=O)C(Cc1cnc[nH]1)N(CCNC(=O)C(Cc1cccnc1)N(CCN)C(=O)CCS)C(=O)CCCCCN)C(CCCCN)C(N)=O (centres unmarked) [Compound 30]
2.96

Return the recorded log10 of IC50 value; entry: N=C(N)NCCCC(C(=O)NCCN(C(=O)CCCCCN)C(Cc1cnc[nH]1)C(=O)NCCN(C(=O)CCc1c[nH]c2ccccc12)C(CCCCN)C(N)=O)N(CCN)C(=O)CCS (centres unmarked) [Compound 28]
2.54

----------
target: CD95/FADD interaction (DD-FADD/DD-CD95) (Homo sapiens, UniProt P25445+Q13158); construct: DD corresponds to amino acids 210 to 303 of CD95; experiment: Renilla luciferase protein-fragment complementation assay (PCA), DD-FADD-F1 / DD-CD95-F2; conditions: HEK293T cells, exposed 4 h, luminescence
Sequence (P25445 226-319 limits assumed): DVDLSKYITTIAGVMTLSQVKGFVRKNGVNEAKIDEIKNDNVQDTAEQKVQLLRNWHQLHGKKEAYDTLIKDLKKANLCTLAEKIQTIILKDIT
Sequence (Q13158 97-181 limits assumed): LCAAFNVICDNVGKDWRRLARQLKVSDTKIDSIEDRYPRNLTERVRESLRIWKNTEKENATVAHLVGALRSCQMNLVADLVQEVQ
measurement label: IC50 (µM)
All answers are understood in µM, so give the number only.

Return the recorded IC50 value; entry: N=C(N)NCCCCC(=O)N(CCNC(=O)C(Cc1cnc[nH]1)N(CCNC(=O)C(Cc1c[nH]c2ccccc12)N(CCN)C(=O)CCS)C(=O)CCCCCN)C(CCCCN)C(N)=O (centres unmarked)
173

Return the recorded IC50 value; entry: CC(O)C(N)C(=O)NCCN(C(=O)CCS)C(CCCNC(=N)N)C(=O)NCCN(C(=O)CCc1c[nH]c2ccccc12)C(Cc1c[nH]cn1)C(=O)NCCN(C(=O)CCCCNC(=N)N)C(CCCCN)C(N)=O (centres unmarked)
277

Return the recorded IC50 value; entry: N=C(N)NCCCCC(=O)N(CCNC(=O)C(Cc1cnc[nH]1)N(CCNC(=O)C(CCCNC(=N)N)N(CCN)C(=O)CCO)C(=O)CCCCCN)C(CCCCN)C(N)=O (centres unmarked)
3930

Return the recorded IC50 value; entry: N=C(N)NCCCCC(=O)N(CCNC(=O)C(Cc1cnc[nH]1)N(CCNC(=O)C(CCCNC(=N)N)N(CCN)C(=O)CCS)C(=O)CCc1c[nH]c2ccccc12)C(CCCCN)C(N)=O (centres unmarked)
246

Return the recorded IC50 value; entry: N=C(N)NCCCCC(=O)N(CCNC(=O)C(N)CS)C(CCCCN)C(=O)NCCN(C(=O)CCc1c[nH]cn1)C(CCCNC(=N)N)C(=O)NCCNC(=O)CCCCCN (centres unmarked)
448
